Where do the numbers come from? From PubChem BioAssay (EPA / NIEHS).

Assay Details: ATG_PXRE_CIS: Attagene CIS-FACTORIAL HepG2 Assay for human Pregnane X Receptor Element (PXRE) (AID 2282957)
Protocol Conditions: HepG2 Attagene CIS-FACTORIAL PXRE reporter, mRNA; actives raise or lower the signal
Calls of active or inactive are those of the source. The calls were made as follows: active = hit-call score of the fitted dose curve at least 0.9, where 1 is the maximum; inactive = score below 0.9.
The categories you may choose from are YES = active, NO = inactive

Reference set, count: 8
Compound	Class Assignment
O=C(O)CCCCC(=O)O	YES
C1CCC(SSC2CCCCC2)CC1	NO
Cc1oc(-c2ccccc2)nc1CCOc1cccc2c1ccn2CCC(=O)O	NO
COc1ccc(S(=O)(=O)N2C(=O)[C@@](c3ccccc3OC)(N3C[C@H](O)C[C@H]3C(=O)N(C)C)c3cc(Cl)ccc32)c(OC)c1	YES
CCc1c(C(=O)NN2CCCCC2)nn(-c2ccc(Cl)cc2Cl)c1-c1ccc(Br)cc1	YES
Nc1ccc2c(c1)C(=O)c1ccccc1C2=O	YES
CCCCc1ccc2c(n1)[C@@H](c1ccc(OC)cc1C[C@H](C)C(=O)O)[C@H](C(=O)O)[C@H]2c1ccc2c(c1)OCO2	NO
CCCCCCC(=O)OCC	YES

Given CC(CO)OC(C)CO (stereo unspecified) (tested in a mixture with another compound) , state the outcome it received in this test.
NO

Another compound to check: CN1CCN(Cc2cc(-c3ccc4[nH]c(=O)oc4c3)co2)[C@@H](c2ccc(F)cc2)C1
YES

// next record CCCCCCCCCCCCCO
NO
